Target: OsWOX13 (Oryza sativa, UniProt Q5QMM3 1-267)
Sequence: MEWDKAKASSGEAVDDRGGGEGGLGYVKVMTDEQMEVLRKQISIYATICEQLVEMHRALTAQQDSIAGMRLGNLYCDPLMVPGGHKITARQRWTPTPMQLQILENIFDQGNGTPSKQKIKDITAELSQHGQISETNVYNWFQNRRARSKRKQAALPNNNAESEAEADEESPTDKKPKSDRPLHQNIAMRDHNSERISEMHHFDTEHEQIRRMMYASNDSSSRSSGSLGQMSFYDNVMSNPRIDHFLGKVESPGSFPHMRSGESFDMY
Assay: protein-binding microarray (RPBM); PBS, 2% BSA, 51.3 ng/ul salmon testes DNA, 50 uM zinc acetate, 200 nM TF, 25 C, 1 h; high values mean tight binding
Conditions: protein: recombinant; tags: N-terminal polyhistidine and DsRed monomer fusion (pET32a); label: CyDye5-dUTP incorporated in the synthesized complementary strand; 3' TTTTT single-stranded linker to array surface; dsDNA, one strand shown
Whole data set: some 35,000 sequences, median “fluorescence intensity (a.u.)” near 10,000, cut for the highest 2% near 52,000. The entries come from a sample that favours the highest values as a whole.
For each record, write down the corresponding binding signal.

OsWOX13 (Oryza sativa, UniProt Q5QMM3 1-267) binding signal of GTCTAATTAGTCCATGATTAATTAGCCATAAGTTCTACAGCGGAGTCACCTAGTGCAG is 53100 fluorescence intensity (a.u.)

Let me check: CCGTGATTAGCGACATTGCTGTGTGCAACGTTTGTTCCTTCGGAGTCACCTAGTGCAG , system OsWOX13 (Oryza sativa, UniProt Q5QMM3 1-267), measured binding signal is 37600 fluorescence intensity (a.u.)

Record CTAGTAATTACAAACATTGGAACTGAGTTTTGGTTGGGGTCGGAGTCACCTAGTGCAG ; system OsWOX13 (Oryza sativa, UniProt Q5QMM3 1-267); binding signal = 23800 fluorescence intensity (a.u.)

I looked up GGCTAATTTGGCGAGGTAATACGGTAGTATAGCACGGTTACGGAGTCACCTAGTGCAG and its binding signal for OsWOX13 (Oryza sativa, UniProt Q5QMM3 1-267) was 10500 fluorescence intensity (a.u.)

The sequence ATGATTGATGTCTTTTATTTTCTTTGTACTAAGGAGCTTGCGGAGTCACCTAGTGCAG , tested on OsWOX13 (Oryza sativa, UniProt Q5QMM3 1-267), showed binding signal of 62700 fluorescence intensity (a.u.)

Short answer on OsWOX13 (Oryza sativa, UniProt Q5QMM3 1-267) for GTTTGATTGCACATTATGTCCTTGGAGTTCTTCAACATAGCGGAGTCACCTAGTGCAG , binding signal: 55700 fluorescence intensity (a.u.)

Case CTCATTAATCTTGCTCATTAATCTTGCAATTAATCCAGAACGGAGTCACCTAGTGCAG , OsWOX13 (Oryza sativa, UniProt Q5QMM3 1-267), binding signal recorded as 4900 fluorescence intensity (a.u.)

The measured binding signal that TGTATTGCCTAATTAATTTTATGCGCCTTTAATTTACTGCCGGAGTCACCTAGTGCAG showed for OsWOX13 (Oryza sativa, UniProt Q5QMM3 1-267) is 16800 fluorescence intensity (a.u.)

So the reported binding signal for AAAATATCAATTGGCCATAATCATTGTAAGCACTATACAGCGGAGTCACCTAGTGCAG , on OsWOX13 (Oryza sativa, UniProt Q5QMM3 1-267), turned out to be 7780 fluorescence intensity (a.u.)

For AAAACAGTTTGATTAGCTTTCTGTCGAATCTGTCATGCATCGGAGTCACCTAGTGCAG on OsWOX13 (Oryza sativa, UniProt Q5QMM3 1-267), measured binding signal was 16500 fluorescence intensity (a.u.)

Observed binding signal on OsWOX13 (Oryza sativa, UniProt Q5QMM3 1-267), entry TCTAAATTGTATTTCTATATGGACTCTAGTCTCCTCTTCACGGAGTCACCTAGTGCAG , equals 14000 fluorescence intensity (a.u.)

Query GTTTTGATAAATTGATTTAAAACGCTTTATAAGAAGTGTCCGGAGTCACCTAGTGCAG on OsWOX13 (Oryza sativa, UniProt Q5QMM3 1-267); binding signal returned: 43800 fluorescence intensity (a.u.)

Known value: OsWOX13 (Oryza sativa, UniProt Q5QMM3 1-267) binding signal of the sequence GACTTGACTAATTGATTTGTGTAGATTTCTAAAAGCAAGGCGGAGTCACCTAGTGCAG equals 58600 fluorescence intensity (a.u.)

Here ATACTGTCATCAATTGATTACTCTGACCGTCGATCACACACGGAGTCACCTAGTGCAG was tested on OsWOX13 (Oryza sativa, UniProt Q5QMM3 1-267), and its binding signal came to 34100 fluorescence intensity (a.u.)

Observed binding signal on OsWOX13 (Oryza sativa, UniProt Q5QMM3 1-267), entry ACTCCACACACTGATCAACACTAATCAGCATGTACATTTGCGGAGTCACCTAGTGCAG , equals 4090 fluorescence intensity (a.u.)

Tested system OsWOX13 (Oryza sativa, UniProt Q5QMM3 1-267); binding signal recorded for CAGGTAATGGATTGATTGCAGGGTTGGGATTTGACCAGGTCGGAGTCACCTAGTGCAG was 51800 fluorescence intensity (a.u.)

The sequence GGTAGAAATAAGGATTGATTGAGATTCACCTACCTTTTCTCGGAGTCACCTAGTGCAG on OsWOX13 (Oryza sativa, UniProt Q5QMM3 1-267): binding signal was 37500 fluorescence intensity (a.u.)

Short answer on OsWOX13 (Oryza sativa, UniProt Q5QMM3 1-267) for TGTTTTACCCTGATTGCGTGAAGTGAAACTATTATTCAGGCGGAGTCACCTAGTGCAG , binding signal: 3550 fluorescence intensity (a.u.)

Log: OsWOX13 (Oryza sativa, UniProt Q5QMM3 1-267), sequence TAGATGATTGCACTAGATTTTGCTTTGTGTACTTATTGAACGGAGTCACCTAGTGCAG , binding signal = 32900 fluorescence intensity (a.u.)

Simply: CATATGACCAGTTTAACTGCCATCATGCAGACACACAGGACGGAGTCACCTAGTGCAG , OsWOX13 (Oryza sativa, UniProt Q5QMM3 1-267), binding signal = 3410 fluorescence intensity (a.u.)

Cited source: paper PMC7819943
